System: CCRF-CEM leukemia
assay comment: NCI tumour cell line growth inhibition, 48 h
recorded endpoint: TGI

Example entries and their recorded answers appear below.
- compound: "CN(C)P(=O)(Oc1occc1C(O)Cc1ccccc1)N(C)C (stereo not given)"
  reading: "> 100 µM"
- compound: "O=C(OCc1ccccc1)C(Cc1ccccc1)N(Cc1ccccc1)Cc1ccccc1 (stereo not given)"
  reading: "> 100 µM"

Provide TGI for all items below, preserving their order.
1. COC(=O)c1cccc2cccc(C(=O)Nc3ccc(Cl)cc3)c12
2. CC1(C)[C@@H](Cn2cnc3c(Cl)nc(N)nc32)CC[C@@]1(C)CO

["> 67.1 µM", "> 100 µM"]

Provide TGI for all items below, preserving their order.
1. CCCCC/C(C=O)=C\c1ccccc1
2. CC1=CC(=O)CC2(C)CCC(C(C)CC(=O)CC(C)C)CC12 (stereo not given)

> 100 µM
61.2 µM

Provide TGI for all items below, preserving their order.
1. COC(=O)c1cc2c(cc1CC(Cc1ccc3c(c1)CCC3)C(=O)OC)CCC2 (stereo not given)
2. O=C(O)CSc1n[nH]c(Cc2ccccc2)n1
3. O=C(CCc1cccc(O)c1)NCCCNC(=O)CCc1cccc(O)c1
4. CCN1C(=O)N(CC)C2Nn3c(s/c(=C4\C(=O)N(C)c5ccccc54)c3=O)=NC21 (stereo not given)
5. COc1cc(CNc2nc3cc(C(F)(F)F)ccc3nc2-c2ccccc2)cc(OC)c1OC
6. CCCCC#CS(=O)(=O)C(F)(F)F
7. COC(C(=O)[C@@H](O)[C@@H](C)O)[C@@H]1Cc2cc3cc(O[C@H]4C[C@@H](O[C@H]5C[C@@H](O)[C@H](O)C(C)O5)[C@H](O)C(C)O4)c(C)c(O)c3c(O)c2C(=O)[C@H]1O[C@H]1C[C@@H](O[C@H]2C[C@@H](O[C@H]3C[C@@H](O)[C@H](OC)C(C)O3)[C@@H](O)C(C)O2)[C@H](O)C(C)O1 (stereo not given in full)
8. O=C1C(Cl)=C(Nc2ccccc2O)C(=O)N1Cc1ccccc1

1: > 100 µM; 2: > 100 µM; 3: > 100 µM; 4: > 100 µM; 5: > 100 µM; 6: > 100 µM; 7: > 13.1 µM; 8: 32.7 µM

Provide TGI for all items below, preserving their order.
1. N#Cc1ccc(OC(=O)Nc2ccc(Cl)c(Cl)c2)cc1
2. COc1cc(C2C(C(=O)Nc3cc(F)c(F)cc3F)=C(C)NC(C)=C2C(=O)Nc2cc(F)c(F)cc2F)ccc1O
3. O=c1oc2ccc(Br)cc2c(=O)n1-c1ccc(F)cc1F

["16.1 µM", "45.6 µM", "> 100 µM"]

###

System: SK-OV-3 ovarian
assay comment: NCI tumour cell line growth inhibition, 48 h; in the data active = GI50 below about 0.43 µM; inactive = the rest
Write down the outcome that applies. Available outcomes: Y (active), N (inactive)

- compound: "[F][Sn]([F])([c]1ccccc1)[c]1ccccc1"
  assigned class: "N"

In this assay, the call recorded for `O=C(N/N=C/c1ccc([N+](=O)[O-])o1)c1ccc(O)cc1` was what?
N

In this assay, the call recorded for `C=C1CC[C@@H](C(C)C)C[C@@H]2[C@H]([C@H](O)C[C@]2(C)O)[C@@]2(C)CC[C@@H]1O2` was what?
N

In this assay, the call recorded for `CC/C=C/C/C=C/C/C=C/C/C=C/C/C=C/C/C=C/CCC(=O)Nc1ccn([C@@H]2O[C@H](CO)[C@@H](O)C2(F)F)c(=O)n1` was what?
Y

In this assay, the call recorded for `O=C(CSC(c1ccccc1)c1ccccc1)N/N=C/c1ccco1` was what?
N

###

System: OVCAR-3 ovarian
assay comment: NCI tumour cell line growth inhibition, 48 h
recorded endpoint: TGI

Example entries and their recorded answers appear below.
- compound: "COc1cc(C=C2C(=O)NC(=S)NC2=O)cc(OC)c1OC"
  TGI: "> 100 µM"
- compound: "O=C(CNCc1ccccc1)Oc1c(Cl)c(Cl)c(Cl)c(Cl)c1Cl"
  TGI: "62.9 µM"
- compound: "CCOc1ccccc1NC(=O)C(=O)Cc1nc2ccccc2s1"
  TGI: "> 100 µM"
- compound: "COc1ccc(-c2csc(NC(=O)CSc3nc(C)c(-c4ccccc4)n3Nc3ccccc3)n2)cc1"
  TGI: "> 100 µM"
- compound: "CCCCCCCCCCN1CCC(N2CCCCC2)CC1"
  TGI: "16.6 µM"
- compound: "O=C(OCC(OC(=O)c1ccccc1)C(OC(=O)c1ccccc1)C(OC(=O)c1ccccc1)c1cnn(-c2ccccc2)n1)c1ccccc1 (stereo unspecified)"
  TGI: "> 100 µM"

Provide TGI for all items below, preserving their order.
1. COC(=O)C1=C(C)NC(C)=C([N+](=O)[O-])C1c1cccc(N=O)c1 (stereo unspecified)
2. C=CCn1c2c(sc1=S)C(S)N=CN2 (stereo unspecified)
3. CC(C)(C)c1ccc(OCC(=O)O)c(Cl)c1
4. C/C(CCn1[nH]c(=O)ccc1=O)=N\OCCCc1ccccc1
5. NS(=O)(=O)c1ccc(NC(NC(=O)C(C(F)(F)F)C(F)(F)F)(C(F)(F)F)C(F)(F)F)cc1

1: 28.6 µM; 2: > 100 µM; 3: > 100 µM; 4: > 100 µM; 5: > 100 µM

###

System: SNB-19 CNS
assay comment: NCI tumour cell line growth inhibition, 48 h
Please respond with reported TGI for every item in the list.

Example entries and their recorded answers appear below.
- compound: "NS(=O)(=O)c1ccc(NC(NC(=O)C(C(F)(F)F)C(F)(F)F)(C(F)(F)F)C(F)(F)F)cc1"
  system under test: "SNB-19 CNS"
  reading: "> 100 µM"
- compound: "CC(O)CC(O)(C(F)(F)F)C(F)(F)F (stereo not given)"
  system under test: "SNB-19 CNS"
  reading: "> 10 µM"
- compound: "O=C(OCc1ccc2c(Cl)cc(Cl)c(O)c2n1)N1CCN(C(=O)c2cc3cc(F)ccc3[nH]2)CC1"
  system under test: "SNB-19 CNS"
  reading: "> 100 µM"
- compound: "COc1ccc2c3c(Nc4ccc(/C(C)=N/O)cc4)[nH]c4ccccc4c-3c(N=O)c2c1"
  system under test: "SNB-19 CNS"
  reading: "51.9 µM"

Sure, the documented TGI for `Nc1ccc2[nH]cc(CCC(=O)O)c2c1` is > 100 µM

###

System: LXFL 529 NSCLC
assay comment: NCI tumour cell line growth inhibition, 48 h
recorded endpoint: TGI

Example entries and their recorded answers appear below.
- molecule: "CC1=C(c2cc(C(=O)Nc3ccc(Cl)cc3)nc(=S)[nH]2)Sc2ccccc2N1"
  TGI: "> 100 µM"
- molecule: "OCC(O)CNc1ccnc2cc(Cl)ccc12 (centres undefined)"
  TGI: "> 100 µM"
- molecule: "COC1=C(Br)C(=O)c2nc(C)ccc2C1=O"
  TGI: "16.7 µM"
- molecule: "C/C(CCn1[nH]c(=O)ccc1=O)=N\\OCCCc1ccccc1"
  TGI: "> 100 µM"
- molecule: "OCCNCCOc1ccc(/C(=C(/Cl)c2ccccc2)c2ccccc2)cc1"
  TGI: "19.7 µM"

Provide TGI for all items below, preserving their order.
1. CC(C(=O)n1c2ccccc2c2ccccc21)N(c1ccccc1)c1ccccc1 (centres undefined)
2. O=C1C(=O)N(c2cc(Cl)ccc2Cl)C(=O)C(=O)C1c1nc2ccccc2o1
3. Cc1cccc(C)c1NC(=O)C(=O)CC(=O)c1cccc([N+](=O)[O-])c1
4. Cc1cccc(C(C)C)c1NC(=O)C(=O)C(C(=O)c1ccccc1F)C1OC(=O)c2ccccc21 (centres undefined)

["27.9 µM", "> 100 µM", "> 100 µM", "27.4 µM"]

Provide TGI for all items below, preserving their order.
1. CN(C)CCSc1nccc(-c2cc3ccccc3s2)n1
2. CC(=O)OC1C2CCC1C1C2C2(Cl)C(Cl)=C(Cl)C1(Cl)C2(Cl)Cl (centres undefined)
3. CCOC(=O)Cn1c(=O)n(C)c(=O)c2c1ncn2Cc1ccccc1
4. O=C(O)CN(c1ccccc1)S(=O)(=O)c1ccc([N+](=O)[O-])cc1
5. O=C(OCc1ccccc1)C(Cc1ccccc1)N(Cc1ccccc1)Cc1ccccc1 (centres undefined)

["30.9 µM", "33.9 µM", "> 100 µM", "> 100 µM", "> 100 µM"]

###

System: UACC-257 melanoma
assay comment: NCI tumour cell line growth inhibition, 48 h
recorded endpoint: GI50

- compound smiles: "COc1ccc(Cc2cnc(NC(=O)c3ccc4c(c3)OCCO4)s2)cc1"
  GI50: "4.83 µM"
- compound smiles: "CC/C=C/C/C=C/C/C=C/C/C=C/C/C=C/C/C=C/CCC(=O)Nc1ccn([C@@H]2O[C@H](CO)[C@@H](O)C2(F)F)c(=O)n1"
  GI50: "5.05 µM"
- compound smiles: "CCCCCc1ccc(S(=O)(=O)Nc2cc(-c3csc(NC(C)=O)n3)ccc2N2CCN(C)CC2)cc1"
  GI50: "4.48 µM"
- compound smiles: "Clc1cc(Cl)cc(Nc2ccc3cc(OCCCN4CCOCC4)ccc3n2)c1"
  GI50: "1.96 µM"

Provide GI50 for all items below, preserving their order.
1. COc1ccc2c3c(Nc4ccc(/C(C)=N/O)cc4)[nH]c4ccccc4c-3c(N=O)c2c1
2. COc1ccc(/C=C(/c2ccccc2)[N+](=O)[O-])cc1
3. N.N.NCCCCCCCCCN.O=C([O-])CC(=O)[O-].O=C([O-])CC(=O)[O-].[Pt+4].[Pt+4]
4. O=C(Nc1ccc(-n2cc(-c3ccncc3)c(-c3ccc(O)c(Cl)c3)n2)cc1)Nc1cccc(Cl)c1Cl
5. O=C(NCc1ccc(S(=O)(=O)c2cc(F)cc(F)c2)cc1)c1ccc2nccn2c1

1: 3.08 µM; 2: 1.6 µM; 3: > 100 µM; 4: 18.6 µM; 5: > 59.1 µM

Provide GI50 for all items below, preserving their order.
1. O=c1oc2ccc(Br)cc2c(=O)n1-c1ccc(F)cc1F
2. O=C(N/N=C/c1ccc([N+](=O)[O-])o1)c1ccc(O)cc1

["1.78 µM", "4.97 µM"]

Sourced from PubChem BioAssay (NCI)
